For each of the compounds below, state its log10 of IC50.
# tested_target: hALDH2 (recombinant human mitochondria ALDH) (Homo sapiens)
# Sequence (P05091 18-517): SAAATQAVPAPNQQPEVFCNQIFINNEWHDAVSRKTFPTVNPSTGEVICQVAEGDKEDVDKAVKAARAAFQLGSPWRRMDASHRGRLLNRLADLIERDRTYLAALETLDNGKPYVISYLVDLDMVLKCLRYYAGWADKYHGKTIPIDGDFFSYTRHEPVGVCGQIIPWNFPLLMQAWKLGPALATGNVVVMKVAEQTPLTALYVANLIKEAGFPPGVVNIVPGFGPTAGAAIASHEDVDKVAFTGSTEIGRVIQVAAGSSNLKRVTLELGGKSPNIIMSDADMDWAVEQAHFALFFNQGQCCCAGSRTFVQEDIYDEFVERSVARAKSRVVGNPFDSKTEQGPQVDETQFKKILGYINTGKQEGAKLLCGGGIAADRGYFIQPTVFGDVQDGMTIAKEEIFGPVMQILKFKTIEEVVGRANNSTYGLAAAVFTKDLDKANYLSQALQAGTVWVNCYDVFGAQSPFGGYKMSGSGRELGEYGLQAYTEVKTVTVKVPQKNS
# assay_notes: ALDH2 inhibition assay (NADH formation, formaldehyde substrate)
# Format: biochemical
Heads up: the numbers are on a log10 scale; they represent IC50 in nM.

Example cases with answers are listed next.
- smiles_string: "O=c1c(-c2ccc(O)cc2)coc2cc(OCc3coc(-c4cc(F)cc(F)c4)n3)ccc12"
  log10 of IC50: 1.78
- smiles_string: "COC(=O)c1cnc(COc2ccc3c(=O)c(-c4ccc(O)cc4)coc3c2)o1"
  log10 of IC50: 0.70

List reported log10 of IC50 for each of these compounds:
1. O=c1c(-c2ccc(O)cc2)coc2cc(OCc3nc(-c4ccccc4)no3)ccc12
2. O=c1c(-c2ccc(O)cc2)coc2cc(OCc3cc(-c4cccc(C(F)(F)F)c4)on3)ccc12
3. CNC(=O)c1coc(COc2ccc3c(=O)c(-c4ccc(O)cc4)coc3c2)n1
4. O=c1c(-c2ccc(O)cc2)coc2cc(OCc3nnc(-c4ccc(F)cc4)o3)ccc12

Result:
2.67
1.99
1.36
-0.40

Hi! Can you tell me log10 of IC50 for each of these compounds?
1. COc1ccc(-c2nc(COc3ccc4c(=O)c(-c5ccc(O)cc5)coc4c3)no2)cc1C(F)(F)F
2. N#CCOc1ccc2c(=O)c(-c3ccc(O)cc3)coc2c1

Result:
1. 1.30
2. 1.36

Count: 3. Required value per item: log10 of IC50.
1. O=C(COc1ccc2c(=O)c(-c3ccc(O)cc3)coc2c1)c1cccc(F)c1
2. COC(=O)c1coc(COc2ccc3c(=O)c(-c4ccc(O)cc4)coc3c2)n1
3. O=c1c(-c2ccc(O)cc2)coc2cc(OCc3cncc(C(F)(F)F)c3)ccc12

Result:
1: 2.14; 2: 0.70; 3: 1.30

Value sought for every listed compound: log10 of IC50.
1. O=c1c(-c2ccc(O)cc2)coc2cc(OCc3noc(-c4ccccc4)n3)ccc12
2. O=c1c(-c2ccc(O)cc2)coc2cc(OCc3noc(-c4cc(C(F)(F)F)cc(C(F)(F)F)c4)n3)ccc12
3. O=c1c(-c2ccc(O)cc2)coc2cc(OCc3nc(-c4cccc(C(F)(F)F)c4)no3)ccc12
4. O=c1c(-c2ccc(O)cc2)coc2cc(OCc3nnc(-c4cccnc4)o3)ccc12
5. O=c1c(-c2ccc(O)cc2)coc2cc(OCc3nnc(-c4cccc(C(F)(F)F)c4)o3)ccc12
6. CCOC(=O)c1cnn(CCOc2ccc3c(=O)c(-c4ccc(O)cc4)coc3c2)c1
7. O=c1c(-c2ccc(O)cc2)coc2cc(OCCCc3ccccc3)ccc12
8. O=c1c(-c2ccc(O)cc2)coc2cc(OCc3coc(-c4cc(F)cc(C(F)(F)F)c4)n3)ccc12

Result:
1: 2.20; 2: 2.11; 3: 1.58; 4: 0.85; 5: 1.62; 6: 1.08; 7: 1.30; 8: 1.30

----------
# tested_target: hALDH2 (recombinant human mitochondria ALDH) (Homo sapiens, UniProt P05091)
# Sequence (P05091 18-517): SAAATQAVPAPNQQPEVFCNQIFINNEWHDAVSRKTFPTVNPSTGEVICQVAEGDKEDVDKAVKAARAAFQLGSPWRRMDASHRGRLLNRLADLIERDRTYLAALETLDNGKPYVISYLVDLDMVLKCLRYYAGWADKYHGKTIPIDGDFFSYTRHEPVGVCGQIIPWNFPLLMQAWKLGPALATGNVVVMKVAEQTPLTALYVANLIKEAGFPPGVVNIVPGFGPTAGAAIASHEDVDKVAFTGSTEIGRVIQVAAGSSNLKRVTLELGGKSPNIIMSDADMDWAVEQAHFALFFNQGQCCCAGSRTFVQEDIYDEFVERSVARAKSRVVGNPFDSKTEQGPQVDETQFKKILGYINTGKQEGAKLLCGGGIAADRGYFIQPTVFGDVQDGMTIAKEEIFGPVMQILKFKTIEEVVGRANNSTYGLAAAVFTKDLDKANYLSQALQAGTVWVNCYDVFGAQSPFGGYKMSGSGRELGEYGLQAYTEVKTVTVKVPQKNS
# assay_notes: ALDH2 inhibition assay (NADH formation, formaldehyde substrate)
# Format: biochemical
# measurement_parameters: at 1 μM; read-out: hALDH2 inhibition (IC50 hALDH2 column)
Would you mind telling me the reported inhibition at 1 µM of each entry?
One number for each entry, in %.

Worked cases, inhibition at 1 µM given:
- smiles_string: "Cc1nc(-c2ccc(C(F)(F)F)cc2)sc1COc1ccc2c(=O)c(-c3ccc(NS(C)(=O)=O)cc3)coc2c1"
  unit_string: "%"
  val: 48
- smiles_string: "CO/N=C(\\N)c1ccc(-c2coc3cc(OCc4cccc(C(=O)OC)c4)ccc3c2=O)cc1"
  unit_string: "%"
  val: 47
- smiles_string: "O=c1c(-c2ccc(O)cc2)coc2cc(OCc3nnc(-c4ccccc4Cl)s3)ccc12"
  unit_string: "%"
  val: 43

Please find the next compound below.
Request: Look at this compound and give its reported inhibition at 1 µM. O=c1c(-c2ccc3[nH]ncc3c2)coc2cc(OCc3noc(-c4cc(F)cc(C(F)(F)F)c4)n3)ccc12
Result: 68

----------
# tested_target: hALDH2 (recombinant human mitochondria ALDH) (Homo sapiens, UniProt P05091)
# Sequence (P05091 18-517): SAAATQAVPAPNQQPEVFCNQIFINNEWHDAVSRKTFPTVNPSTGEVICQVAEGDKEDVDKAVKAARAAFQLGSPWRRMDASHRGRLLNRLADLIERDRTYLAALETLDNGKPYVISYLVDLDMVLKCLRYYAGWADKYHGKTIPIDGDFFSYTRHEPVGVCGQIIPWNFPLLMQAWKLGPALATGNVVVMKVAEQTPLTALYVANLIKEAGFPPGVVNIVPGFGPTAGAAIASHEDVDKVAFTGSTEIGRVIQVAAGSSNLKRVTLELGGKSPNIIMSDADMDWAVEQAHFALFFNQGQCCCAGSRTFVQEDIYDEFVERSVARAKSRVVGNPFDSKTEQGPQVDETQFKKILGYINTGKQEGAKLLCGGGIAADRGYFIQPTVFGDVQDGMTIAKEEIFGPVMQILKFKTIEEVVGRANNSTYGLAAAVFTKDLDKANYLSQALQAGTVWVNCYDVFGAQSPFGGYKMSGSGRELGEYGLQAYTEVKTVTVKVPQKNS
# assay_notes: ALDH2 inhibition assay (NADH formation, formaldehyde substrate)
# Type: biochemical
# measurement_parameters: at 1 μM; read-out: hALDH2 inhibition (IC50 hALDH2 column)
# Protocol: ALDH2 inhibition assays were performed in sodium phosphate buffer (50 mM, pH 7.4) containing 1.2 mM NAD^+ (Sigma N7004), 1 nM hALDH2 (recombinant human mitochondria ALDH), various concentrations of test compounds (from 0.03 nM to 1000 nM), and 0.15 mM freshly prepared formaldehyde solution (Ladd Research 20295). […] Normally, IC50 values were determined by fitting concentration-inhibition data to sigmoidal dose-response curves with two-floating parameters: IC50 and Hill coefficient. […]
For each of the compounds below, state its inhibition at 1 µM.
Give bare numbers, in %.

- compound: "Cc1ccc(S(=O)(=O)Nc2ccc(-c3coc4cc(OCc5sc(-c6ccc(C(F)(F)F)cc6)nc5C)ccc4c3=O)cc2)cc1 [PT-5]"
  parameter: "inhibition at 1 µM"
  val: 0.19
- compound: "N#Cc1ccc(-c2coc3cc(OCc4nnc(-c5cc(F)cc(C(F)(F)F)c5)o4)ccc3c2=O)cc1 [PT-68]"
  parameter: "inhibition at 1 µM"
  val: 33

Query compound follows.
Request: Which inhibition at 1 µM value is on record for N#Cc1ccc(-c2coc3cc(OCc4noc(-c5cc(F)cc(C(F)(F)F)c5)n4)ccc3c2=O)cc1 [PT-1] ?
Result: 17

----------
# tested_target: hALDH2 (recombinant human mitochondria ALDH) (Homo sapiens)
# Sequence (P05091 18-517): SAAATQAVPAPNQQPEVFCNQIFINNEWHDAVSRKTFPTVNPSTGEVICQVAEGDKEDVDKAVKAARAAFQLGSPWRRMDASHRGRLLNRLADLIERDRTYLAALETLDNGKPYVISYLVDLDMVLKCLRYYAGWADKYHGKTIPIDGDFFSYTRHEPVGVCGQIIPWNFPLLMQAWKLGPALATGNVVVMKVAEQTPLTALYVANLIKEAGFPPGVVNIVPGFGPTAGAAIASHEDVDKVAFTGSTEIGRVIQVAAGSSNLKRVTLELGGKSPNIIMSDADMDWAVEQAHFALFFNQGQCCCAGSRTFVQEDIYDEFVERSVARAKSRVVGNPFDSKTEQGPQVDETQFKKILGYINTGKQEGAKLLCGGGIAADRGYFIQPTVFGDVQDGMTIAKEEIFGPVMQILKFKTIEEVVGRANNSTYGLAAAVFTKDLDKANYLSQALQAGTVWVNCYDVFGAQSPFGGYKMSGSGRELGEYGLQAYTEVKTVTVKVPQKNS
# assay_notes: ALDH2 inhibition assay (NADH formation, formaldehyde substrate)
pIC50: −log10 of the molar value.
// Not satisfied strictly below 8 in pIC50; Satisfied otherwise

Request: Hi, just wondering whether O=c1c(-c2ccc(O)cc2)coc2cc(OCc3coc(-c4ccc(F)cc4)n3)ccc12 shows pIC50 of 8 or higher.
Result: Not satisfied

Request: Could you tell me if the measured pIC50 of O=c1c(-c2ccc(O)cc2)coc2cc(OCc3coc(-c4ccc(Cl)cc4)n3)ccc12 reaches 8 or more?
Result: Not satisfied

Request: Has CS(=O)(=O)Nc1ccc(-c2c(O)oc3cc(OCc4cccc(C(=O)O)c4)ccc3c2=O)cc1 a recorded pIC50 greater than or equal to 8?
Result: Satisfied

Request: Please check the record O=c1c(-c2ccc(O)cc2)coc2cc(OCCNCc3cccc(C(F)(F)F)c3)ccc12 and state if its pIC50 is at or above 8.
Result: Satisfied

Request: Is pIC50 for O=c1c(-c2ccc(O)cc2)coc2cc(OCc3ccncc3)ccc12 at or above 8?
Result: Satisfied

Request: Determine whether this compound has pIC50 no lower than 8: N#Cc1cccc(COc2ccc3c(=O)c(-c4ccc(O)cc4)coc3c2)c1
Result: Satisfied

Request: Hello, I need to know if C=CCOC(=O)c1cccc(-c2nc(COc3ccc4c(=O)c(-c5ccc(O)cc5)coc4c3)no2)c1 has measured pIC50 not below 8. Thanks!
Result: Not satisfied
